Test description: Pharmacokinetic interaction study, oral administration alone or in combination in rats
Format: in vivo, rat
Test conditions: rat, plasma, po, 10 mg/kg, LUME 10 mg/kg oral co-administered with 99–411 70 mg/kg, rats
Readout label: AUC(0-t) (ng·h/mL)
Give the value in ng·h/mL but do not write ng·h/mL after it.

**Query** Form field: reported AUC(0-t) of CCCCN(CCCC)CC(O)c1cc(Cl)cc2c1-c1ccc(Cl)cc1/C2=C/c1ccc(Cl)cc1 (stereo not shown)
**Result** 15400

###

Test description: Pharmacokinetic interaction study, oral administration alone or in combination in rats
Format: in vivo, rat
Test conditions: rat, plasma, po, PPQ 50 mg/kg oral co-administered with 99–411 70 mg/kg, rats
Readout label: CL/F (mL/min/kg)
Give the value in mL/min/kg but do not write mL/min/kg after it.

**Query** Form field: reported CL/F of Clc1ccc2c(N3CCN(CCCN4CCN(c5ccnc6cc(Cl)ccc56)CC4)CC3)ccnc2c1 [PPQ, piperaquine]
**Result** 45.5
